# SYSTEM NAME: Quinone oxidoreductase (Homo sapiens)
# Sequence (Q08257 whole entry): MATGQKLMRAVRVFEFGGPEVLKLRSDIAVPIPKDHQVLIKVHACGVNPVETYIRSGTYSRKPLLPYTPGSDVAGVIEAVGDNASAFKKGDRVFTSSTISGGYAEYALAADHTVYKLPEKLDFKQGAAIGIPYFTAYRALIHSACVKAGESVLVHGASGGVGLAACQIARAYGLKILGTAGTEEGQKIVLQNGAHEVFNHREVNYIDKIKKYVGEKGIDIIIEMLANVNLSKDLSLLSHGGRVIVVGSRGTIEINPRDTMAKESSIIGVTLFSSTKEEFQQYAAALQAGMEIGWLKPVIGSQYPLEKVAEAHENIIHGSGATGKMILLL
The entries below come with measured IC50 values attached.

COMPOUND: O=[N+]([O-])c1ccc2c(c1)OP(=O)(N(CCCl)CCCl)NC2 (configuration not stated)
IC50 (µM): 48
//
COMPOUND: O=[N+]([O-])c1ccc(C2CCOP(=O)(N(CCCl)CCCl)N2)cc1 (configuration not stated)
IC50 (µM): 48

* * *

# PROTOCOL SUMMARY: Clearance in mouse at 10 mg/kg
# Assay type: ADME, organism-based
# CONDITION DESCRIPTION: in vivo

SMILES TEXT: COc1cccc2c1C(=O)c1c(O)c3c(c(O)c1C2=O)C[C@@](O)(C(C)=O)C[C@@H]3O[C@H]1C[C@H](NCOCCn2ccnc2[N+](=O)[O-])[C@H](O)[C@H](C)O1
clearance, mL/min/kg: 188

* * *

# System: Hep 3B2
# PROTOCOL SUMMARY: Cytotoxicity against human Hep3B cells after 24 hrs by MTS assay
# Format: functional, cell-based
pIC50: −log10 of the molar value.
The entries below come with measured pIC50 values attached.

SMILES TEXT: COc1ccc(C[C@@H](C)[C@@H](C)Cc2ccc(OC)c(OCCOCCOCCOCCn3ccnc3[N+](=O)[O-])c2)cc1OC
pIC50: 4.90

SMILES TEXT: COc1ccc(C[C@@H](C)[C@@H](C)Cc2ccc(OC)c(OCCOCCOCCOCCn3cnc([N+](=O)[O-])c3)c2)cc1OC
pIC50: 4.89

SMILES TEXT: COc1ccc(C[C@@H](C)[C@@H](C)Cc2ccc(OCCOCCOCCOCCn3cnc([N+](=O)[O-])c3)c(OC)c2)cc1OC
pIC50: 4.90

SMILES TEXT: COc1ccc(C[C@@H](C)[C@@H](C)Cc2ccc(OCCOCCOCCOCCn3ccnc3[N+](=O)[O-])c(OC)c2)cc1OC
pIC50: 4.87

* * *

# PROTOCOL SUMMARY: Tmax in mouse at 10 mg/kg
# Type: ADME, organism-based
# CONDITION DESCRIPTION: in vivo
MEASURED QUANTITY: Tmax

SMILES TEXT: COc1cccc2c1C(=O)c1c(O)c3c(c(O)c1C2=O)C[C@@](O)(C(C)=O)C[C@@H]3O[C@H]1C[C@H](NCOCCn2ccnc2[N+](=O)[O-])[C@H](O)[C@H](C)O1
MEASURED QUANTITY: Tmax
VALUE: 5 min

* * *

# PROTOCOL SUMMARY: Inhibition of Escherichia coli nitroreductase F179 mutant
pIC50: −log10 of the molar value.

COMPOUND: O=[N+]([O-])c1ccc2c(c1)OP(=O)(N(CCCl)CCCl)NC2 (stereo unspecified)
pIC50: 4.21

* * *

# SYSTEM NAME: Oxygen-insensitive NAD(P)H nitroreductase (Escherichia coli K-12, UniProt P38489)
# Sequence (P38489 whole entry): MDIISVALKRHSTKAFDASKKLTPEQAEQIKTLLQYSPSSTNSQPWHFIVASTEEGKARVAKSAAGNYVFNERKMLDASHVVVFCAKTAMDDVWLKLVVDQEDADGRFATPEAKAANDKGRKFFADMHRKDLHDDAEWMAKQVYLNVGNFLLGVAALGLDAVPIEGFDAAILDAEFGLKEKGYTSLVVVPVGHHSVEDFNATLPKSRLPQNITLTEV
# PROTOCOL SUMMARY: Inhibition of Escherichia coli nitroreductase expressed in human HCT116 cells
pIC50: −log10 of the molar value.
MEASURED QUANTITY: pIC50

MOLECULE: O=[N+]([O-])c1ccc2c(c1)OP(=O)(N(CCCl)CCCl)NC2 (stereo unspecified)
VALUE: 4.32

* * *

# PROTOCOL SUMMARY: Cmax in mouse at 10 mg/kg
# Type: ADME, organism-based
# Set-up: dose 10 mg/kg
# CONDITION DESCRIPTION: in vivo
MEASURED QUANTITY: Cmax (ng/mL)

SMILES TEXT: COc1cccc2c1C(=O)c1c(O)c3c(c(O)c1C2=O)C[C@@](O)(C(C)=O)C[C@@H]3O[C@H]1C[C@H](NCOCCn2ccnc2[N+](=O)[O-])[C@H](O)[C@H](C)O1
MEASURED QUANTITY: Cmax
VALUE UNITS: ng/mL
VALUE: 1820
